Molecular target: hPXR (Homo sapiens)
Sequence (O75469 1-434): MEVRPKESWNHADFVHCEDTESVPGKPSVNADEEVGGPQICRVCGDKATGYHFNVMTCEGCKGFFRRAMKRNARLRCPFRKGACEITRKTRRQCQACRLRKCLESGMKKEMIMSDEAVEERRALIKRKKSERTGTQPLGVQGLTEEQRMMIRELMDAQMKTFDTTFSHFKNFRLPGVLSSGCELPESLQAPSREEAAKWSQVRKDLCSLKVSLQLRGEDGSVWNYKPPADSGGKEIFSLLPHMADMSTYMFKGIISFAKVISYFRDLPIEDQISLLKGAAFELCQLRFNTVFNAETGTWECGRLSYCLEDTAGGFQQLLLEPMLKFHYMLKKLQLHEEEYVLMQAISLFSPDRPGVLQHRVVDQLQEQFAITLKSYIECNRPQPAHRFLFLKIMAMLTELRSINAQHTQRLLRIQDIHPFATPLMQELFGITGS
Assay: hPXR reporter gene assay with DPX-2 cells, agonist mode
assay.endpoint: EC50

Challenge: What measured EC50 goes with CC1(C)C(C=C(Cl)Cl)C1C(=O)OC(C#N)c1cccc(Oc2ccccc2)c1 (stereo not drawn) [α-Cypermethrin] ?
Response given: 0.88 µM

----------
tested on: DPX-2 cells; test: Cell viability (CellTiter-Fluor) in DPX-2 cells; settings: read-out: Cell viability IC50 (symbol), 48 hr
IC50 values for the compounds below.

[
  {
    "compound": "COC(=O)c1ccc(CNS(C)(=O)=O)cc1S(=O)(=O)NC(=O)Nc1nc(OC)cc(OC)n1",
    "assay.value": "> 50 µM"
  }
]

Could you now consider this next compound?
Challenge: Consider the compound shown here: CC(C)[C@H](C(=O)O[C@H](C#N)c1cccc(Oc2ccccc2)c1)c1ccc(Cl)cc1 [Esfenvalerate] What is its recorded IC50?
Response given: > 50 µM
